# PROTOCOL_TEXT: VP16 counterscreen qHTS for inhibitors of ROR gamma transcriptional activity;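 also: Gal4-VP16 expression switched on by copper sulfate through the metallothionein promoter; nearly all actives have a fitted effect of over 50% in size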; also: potency is read from the fitted curve at half-maximal effect
# EXPERIMENTAL_PARAMETERS: Drosophila S2 Gal4-VP16 UAS-luciferase, luminescence, 20 h; series mostly up to 53.6 µM
# Protocol: NIH Molecular Libraries Probe Production Network [MLPCN] NIH Chemical Genomics Center [NCGC] Assay Provider: Dan Littman, New York University […] For screening, 600 cells in 4 uL/well were dispensed into white solid 1536-well plates (Grenier) using a solenoid-based dispenser. […] After addition of 1.5 uL Photinus luciferase detection reagent, the plates were incubated 10 min at ambient temperature and then read by a ViewLux (Perkin Elmer) to detect luminescence.
In all, about 310,000 compounds went through this assay and about 11,000 (3.5%) were called active. Roughly 8% stayed inconclusive and do not appear here. What follows is part of a selection rich in actives, with near analogues and random picks from the rest.
ENDPOINT: Potency

COMPOUND	ENDPOINT	RESULT
CCOc1ccc(NC(=O)C(C)N2C(=O)c3ccccc3C2=O)cc1 (stereo unspecified)	Potency	inactive
Oc1cccc(C2c3[nH]c4ccccc4c3CCN2Cc2cnn(-c3ccccc3)c2)c1 (stereo unspecified)	Potency	inactive
O=C(Nc1ccncc1)c1ccc(Cl)c([N+](=O)[O-])c1	Potency	inactive
CC(=O)c1sc(NC(=O)c2ccc(C)cc2)nc1C	Potency	inactive
Cc1[nH]nc(-c2ccc(OCc3cnn(-c4ccccc4)c3)cc2O)c1Oc1ccc(Cl)cc1	Potency	3.98 µM (active)
Cn1cncc1COC(=O)c1ccc(Cl)cc1	Potency	inactive

---

# PROTOCOL_TEXT: VP16 counterscreen qHTS for inhibitors of ROR gamma transcriptional activity;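 also: Gal4-VP16 expression switched on by copper sulfate through the metallothionein promoter; nearly all actives have a fitted effect of over 50% in size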
# EXPERIMENTAL_PARAMETERS: Drosophila S2 Gal4-VP16 UAS-luciferase, luminescence, 20 h; series mostly up to 53.6 µM
# Method: NIH Molecular Libraries Probe Production Network [MLPCN] NIH Chemical Genomics Center [NCGC] Assay Provider: Dan Littman, New York University […] For screening, 600 cells in 4 uL/well were dispensed into white solid 1536-well plates (Grenier) using a solenoid-based dispenser. […] After addition of 1.5 uL Photinus luciferase detection reagent, the plates were incubated 10 min at ambient temperature and then read by a ViewLux (Perkin Elmer) to detect luminescence.
Hit rate of the full screen: of about 310,000 compounds, about 11,000 (3.5%) were called active. Inconclusive results (about 8%) are left out. Calls follow the shape of the dose curve; as a rule, active = well fitted inhibition curve with a large enough effect; inconclusive = small, poorly fitted or top-dose-only effect, or effect the other way; inactive = flat fitted curve, though single readings scatter. Shown is part of a subset that was picked to be rich in actives.
Possible outcomes: 1 (active), -1 (inactive)

COMPOUND	GROUP
Cc1ccc(S(=O)(=O)Oc2ccc(/C=N/NC(=O)c3ccncc3)cc2)cc1	-1
O=c1[nH]c(N2CCN(Cc3ccc4c(c3)OCO4)CC2)nc2c1CCCC2	-1
Cc1cc(/C=N/NC(N)=O)c(C)n1C1CCCCC1	-1
NS(=O)(=O)c1ccc(N=Nc2c(O)[nH]c3ccc(Br)cc23)cc1	-1
CSCCC(NC(=O)c1cc([N+](=O)[O-])cc([N+](=O)[O-])c1)c1nc2ccccc2[nH]1 (stereo not given)	1
CCCC(C)NC(=O)C1CCN(C(=O)C2CC(=O)N(c3ccc(C)cc3)C2)CC1 (stereo not given)	-1
CC(=O)c1ccc(N2Cc3ccccc3C2)cc1	-1
Cc1ccc(OCc2nc3ccccc3n2C)cc1	-1
O=C(CN(C(=O)CCC(=O)Nc1nccs1)c1ccc(F)cc1)NCc1ccc2c(c1)OCO2	-1
Cc1c(C)c2c(OCC(=O)NCCCO)cc3c(c2oc1=O)CCC(C)(C)O3	-1
COc1ccc(Cc2nc(-c3ccccn3)no2)cc1OC	-1
Cc1ccc2c(=O)cc(C(=O)NCCc3ccc(S(N)(=O)=O)cc3)oc2c1C	-1
COc1ccccc1Oc1nc(-c2cccnc2)nc2ccccc12	-1
COc1ccc(COC(=O)c2ccc(Cl)c(S(=O)(=O)N3CCOCC3)c2)cc1F	-1
CCCn1c(C(Cc2ccccc2)NC(=O)COC)nc2ccccc21 (stereo not given)	-1
Cc1cc(=O)[nH]c(Nc2cccc(Br)c2)n1	-1
Cc1sc2ncn(CC(=O)NCCCC(=O)N3CCN(c4ccccc4F)CC3)c(=O)c2c1C	-1
Cc1ccc(CNC(=O)CCN2C(=O)[C@@H]3Cc4ccccc4CN3C2=O)cc1	-1
Cc1cc(/C=N/Nc2ccc([N+](=O)[O-])cn2)c(C)n1-c1cccc(C(=O)O)c1	-1
COc1ccc(C(=O)NC(=S)Nc2ccccc2N2CCN(S(C)(=O)=O)CC2)cc1OC	-1
COCn1c(COc2ccccc2)nc2ccccc21	-1
O=C(Nc1cccc(Cl)c1Cl)c1ccccc1NC(=O)C1CC=CCC1C(=O)O (stereo not given)	-1
Cc1ccc(Oc2nc(-c3ccccn3)nc3ccccc23)cc1	1
COc1ccc(C(=O)NC(=S)N2CCNC(=O)C2CC(=O)OC(C)C)cc1 (stereo not given)	1
COc1ccc(Sc2nc(-c3ccccc3)ncc2OC)cc1	-1
CCn1cc(C(=O)NCC(=O)NC(C)(C)CO)c(=O)c2cc3c(cc21)OCO3	-1
COc1ccc(CCNC(=O)C(=O)NCC2OCCN2S(=O)(=O)c2ccc(OC)c(C)c2)cc1 (stereo not given)	-1
O=C(NC(=S)Nc1ccccc1N1CCCCC1)c1ccc(F)cc1	1
COc1ccccc1Cn1c(CO)nc2ccccc21	-1
Cc1ccccc1NC(=O)Nc1ccccc1N1CCCCC1	-1
COc1ccccc1N1CCN(C(=O)c2cc(=O)c3cc(C)cc(C)c3o2)CC1	-1
CCOC(=O)c1cnc(-c2ccccc2)nc1Oc1ccc(C)cc1	-1
O=C(Nc1ccccc1N1CCCCC1)c1cccc(F)c1	-1
CC(C)Nc1ccc(-n2nc3ccccc3[n+]2[O-])cc1	1
S=c1[nH]nc(COc2ccccc2)n1-c1ccccc1	1
COc1ccc(C(=O)NC2CC2)cc1OC1CCN(C/C=C/c2ccccc2)CC1	-1
COCCn1c(SCC(=O)N2CCCCCC2)nc2c(c1=O)SCC2	-1
COc1cccc(C(=O)NNC(=O)c2cccc(F)c2)c1	-1
CCc1ccc(C(=O)NC(=S)Nc2ccccc2N2CCOCC2)cc1	1
Cn1nccc1/C=N\NC(=O)c1ccc(Cl)cc1	-1
C=CCCN(C(Cc1ccccc1)C(=O)OC)S(=O)(=O)c1cc(Br)ccc1Br (stereo not given)	-1
CCOc1ccc(-n2c(SCC(=O)OC)nc3sc4c(c3c2=O)CCN(C)C4)cc1	-1
COCCCNC(=O)Cc1ccc(-n2c(C)nc3cccnc32)cc1	-1
COCc1nc2ccccc2n1Cc1ccccc1Br	1
Cc1cnc(CNc2nc(-c3cccnc3)nc3ccccc23)cn1	-1
